// provenance: ChEMBL document CHEMBL3988442

- target_of_assay: Tyrosyl-tRNA synthetase, putative (Trypanosoma cruzi (strain CL Brener))
- experiment: Trypanosoma cruzi tyrosyl tRNA synthetase (TcYRS) SOP
- Type: functional
- Set-up: scale not given: direction of the effect not stated beside the values
- assay_conditions: 30 µM
Listed below: Percent Effect values for each entry.
Kindly provide the numeric value in % only, without the unit symbol.

As a guide, the following entries are already answered.
Cc1occc1C(=O)N1CCC2(CC1)C(c1cnn(C)c1)CC(=O)N2C (stereo unspecified) | 7.69
CCN1CCn2c(C)cnc2C12CCN(C(=O)c1ccc(Cl)cc1)CC2 | 10
CCS(=O)(=O)CCNC(=O)c1ccc(-c2ccc(C)cc2)cc1F | 1.24
O=c1c2ccccc2nc2n1CCN(Cc1cccs1)CC2 | 14.3
O=C(Cc1ccc2c(c1)OCCO2)NC1CCCC1 | 7.32

stdin: State its Percent Effect: O=C(Cc1cccc(F)c1)N1CCCCC1c1ccn2ccnc2n1 (stereo unspecified)
stdout: -9.09

====

- target_of_assay: Arginase-2, mitochondrial (Homo sapiens)
- experiment: in vitro enzyme assay to detect the production of urea directly proportional to the activity of Arginase II; note: in the data most compounds retested in dose-response had high values
- Type: functional
- Parameters: scale not given: direction of the effect not stated beside the values
- assay_conditions: 33.3 µM
property_label: Percent Effect (%)
Enter your answer as a number in %; do not include the unit.

As a guide, the following entries are already answered.
CC(=O)N1CCN(C(=O)NCc2csc(Br)c2)CC1 | -0.554
CN(Cc1cn2c(n1)CN(C1CCOC1)CC2)Cc1ccco1 (configuration not stated) | -58.2
Cc1noc(NC(=O)c2ccc(C)c(F)c2)n1 | 0

stdin: Check the records and state Percent Effect for Cc1cc(C)c(CNC(=O)NCC(O)c2cccc(F)c2)c(=O)[nH]1 (configuration not stated)
stdout: -3.96

stdin: Provide one value: measured Percent Effect of `Cc1ccc(C)c(-c2csc(N)c2C#N)c1`
stdout: -10

stdin: Read off the recorded Percent Effect for `COCCN1C(=O)C[C@H]2[C@H]1CCN2Cc1cccc(C#N)c1`
stdout: 3.03

stdin: Return the recorded Percent Effect value; entry: Cc1nccn1CC1CCCN1CCCc1nc(-c2cccs2)no1 (configuration not stated)
stdout: -11.6

stdin: Output Percent Effect of `Cn1cc(C[C@H]2[C@H](O)CCN2CC2CC2)cn1`
stdout: -32.8

stdin: Specify Percent Effect for CN1CCN(Cc2cscn2)CC(C(=O)N(C)C)C1 (configuration not stated) and stop.
stdout: -3.03

stdin: State, in one line, measured Percent Effect of `O=C(c1cc(F)ccc1F)C1CCN(C(=O)c2ccccn2)CC1`
stdout: 3.58

stdin: Please give measured Percent Effect of the following entry: `O=C(c1cc(Cl)c2c(c1)OCO2)N1CCN(c2ccccn2)CC1`
stdout: 3.64

stdin: Supply measured Percent Effect of `CCN(CC)C(=O)CCNc1cncc(-n2nc(C)cc2C)n1` in your reply.
stdout: 4.71

====

- Tested on: Trypanosoma cruzi
- experiment: Trypanosoma cruzi phosphomannomutase and mannose-1-phosphate guanylyltransferase assay
- Assay type: functional
- Set-up: scale not given: direction of the effect not stated beside the values
- assay_conditions: 10 µM
Consider the following compounds and their measured Percent Effect readings.
Write the value in % as a bare number.

Worked cases, answers included:
Cc1ccc(Cc2cnc(NC(=O)C3CNC(=O)N3)s2)cc1F (configuration not stated) | 0.308
c1cnn(C2CN(Cc3nc(-c4ccsc4)no3)C2)c1 | 8.27
Fc1ccc2[nH]c(C3CCCN3CCc3ccccn3)nc2c1 (configuration not stated) | 1.98
Cc1nn(C)c(C)c1C1COCCN1C(=O)c1n[nH]c2ccccc12 (configuration not stated) | 6.74
CC1CN(C(=O)CN(Cc2ccccc2Br)C2CC2)CCO1 (configuration not stated) | 3.82
CC(C)N(C)CC(=O)NC1CCc2nccn2C1 (configuration not stated) | -4.38
CN(Cc1cn2c(n1)CN(C1CCOC1)CC2)Cc1ccco1 (configuration not stated) | 5.99
CCn1c(C2CCCN(Cc3nccn3CCOC)C2)nn(C)c1=O (configuration not stated) | 3.03

stdin: Give the reported value of Percent Effect for this record: O=C(COCC1CC1)N1CCCC(n2ccnc2)C1 (configuration not stated)
stdout: -1.33

stdin: Provide one value: measured Percent Effect of `Cc1nc(C2CCN(C(=O)c3ccc(=O)n(C)c3)CC2)c2sccn12`
stdout: 1.58

stdin: Supply recorded Percent Effect for `Cc1cc(C[C@@H]2COC[C@H]2NCc2ccccc2C(F)(F)F)on1` here.
stdout: 1.58
